Data provenance is paper PMC9120017.

Experimental target: mouse TMEM16A mutant I640A (Mus musculus, UniProt Q8BHY3, I640A)
Construct: expressed in transfected cells; host or cells: HEK293T
Sequence (Q8BHY3 1-960 I640A): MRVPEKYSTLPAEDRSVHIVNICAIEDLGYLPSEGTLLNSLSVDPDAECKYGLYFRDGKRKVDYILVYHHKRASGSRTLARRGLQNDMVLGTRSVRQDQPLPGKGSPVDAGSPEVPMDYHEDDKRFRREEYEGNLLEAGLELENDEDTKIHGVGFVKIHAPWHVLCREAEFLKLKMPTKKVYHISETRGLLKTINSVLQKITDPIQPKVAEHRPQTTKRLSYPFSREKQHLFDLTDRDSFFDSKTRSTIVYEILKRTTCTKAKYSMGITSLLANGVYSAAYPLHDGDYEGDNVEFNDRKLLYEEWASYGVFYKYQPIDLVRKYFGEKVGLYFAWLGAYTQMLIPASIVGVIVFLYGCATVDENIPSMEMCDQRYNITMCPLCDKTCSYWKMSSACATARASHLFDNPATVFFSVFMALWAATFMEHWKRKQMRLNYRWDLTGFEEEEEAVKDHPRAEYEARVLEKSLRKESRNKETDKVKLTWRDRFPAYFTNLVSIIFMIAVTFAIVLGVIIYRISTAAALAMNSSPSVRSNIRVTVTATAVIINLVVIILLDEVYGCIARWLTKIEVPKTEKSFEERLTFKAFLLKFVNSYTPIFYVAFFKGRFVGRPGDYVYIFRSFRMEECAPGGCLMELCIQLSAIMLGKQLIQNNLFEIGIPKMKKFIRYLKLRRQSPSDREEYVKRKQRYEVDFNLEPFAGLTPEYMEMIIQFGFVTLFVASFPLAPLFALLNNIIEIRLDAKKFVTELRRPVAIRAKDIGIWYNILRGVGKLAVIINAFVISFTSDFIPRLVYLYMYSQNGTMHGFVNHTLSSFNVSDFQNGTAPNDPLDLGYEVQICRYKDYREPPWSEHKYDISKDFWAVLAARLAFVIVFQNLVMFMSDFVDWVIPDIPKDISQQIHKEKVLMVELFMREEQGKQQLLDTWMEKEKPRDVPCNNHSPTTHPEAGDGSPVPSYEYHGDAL
Assay name: Inside-out patch recording of 1PBC block, mutant I640A
Format: cell-based
Condition parameters: 100 mV; 15 µM Ca2+
Outcome measure: IC50
Remember to put the unit after the number in your answer.

Would you mind telling me what IC50 value was observed for N#Cc1c(C(F)(F)F)cc(O)n2c1nc1ccccc12 [1PBC] ? 23.1 µM

----------
Experimental target: mouse TMEM16A mutant V599A (Mus musculus, UniProt Q8BHY3, V599A)
Construct: expressed in transfected cells; host or cells: HEK293T
Sequence (Q8BHY3 1-960 V599A): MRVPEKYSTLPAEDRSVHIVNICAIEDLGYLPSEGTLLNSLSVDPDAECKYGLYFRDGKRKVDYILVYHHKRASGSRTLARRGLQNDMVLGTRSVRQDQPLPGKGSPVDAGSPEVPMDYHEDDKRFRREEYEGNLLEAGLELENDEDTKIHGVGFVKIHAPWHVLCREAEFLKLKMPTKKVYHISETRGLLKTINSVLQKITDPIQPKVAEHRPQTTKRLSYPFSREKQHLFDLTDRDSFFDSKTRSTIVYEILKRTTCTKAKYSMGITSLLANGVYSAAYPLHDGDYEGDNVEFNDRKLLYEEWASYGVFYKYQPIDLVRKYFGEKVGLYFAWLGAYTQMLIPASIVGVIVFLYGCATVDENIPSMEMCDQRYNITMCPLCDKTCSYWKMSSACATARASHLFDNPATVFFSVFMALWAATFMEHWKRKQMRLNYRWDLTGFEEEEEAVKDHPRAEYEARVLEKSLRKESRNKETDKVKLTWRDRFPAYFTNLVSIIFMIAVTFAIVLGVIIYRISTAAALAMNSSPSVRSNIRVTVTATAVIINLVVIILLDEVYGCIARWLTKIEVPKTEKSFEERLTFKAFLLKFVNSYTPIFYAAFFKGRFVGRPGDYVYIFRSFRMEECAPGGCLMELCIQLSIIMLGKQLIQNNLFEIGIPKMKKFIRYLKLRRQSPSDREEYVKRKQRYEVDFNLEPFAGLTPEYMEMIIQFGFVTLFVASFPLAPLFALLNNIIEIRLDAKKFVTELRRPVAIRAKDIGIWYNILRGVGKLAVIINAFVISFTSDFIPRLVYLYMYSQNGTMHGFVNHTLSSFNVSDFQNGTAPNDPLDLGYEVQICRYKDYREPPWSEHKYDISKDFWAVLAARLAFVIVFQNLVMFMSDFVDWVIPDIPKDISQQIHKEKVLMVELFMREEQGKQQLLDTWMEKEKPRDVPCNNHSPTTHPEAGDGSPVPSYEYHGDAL
Assay name: Inside-out patch recording of 1PBC block, mutant V599A
Assay type: cell-based
Condition parameters: 120 mV; 15 µM Ca2+
Outcome measure: IC50 (µM)
# value in µM; strip the unit string

Would you mind telling me what IC50 value was observed for `N#Cc1c(C(F)(F)F)cc(O)n2c1nc1ccccc12` ? 45.1
